Experiment: qHTS of pediatric cancer cell lines to identify multiple opportunities for drug repurposing: Primary screen for U-2 OS cells (AID 1347096);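 also: plate controls were DMSO wells for no effect and bortezomib positive control wells for full effect; nearly all actives have a fitted effect of over 50% in size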
Details: U-2 OS viability, CellTiter-Glo luminescence, 48 h; series mostly up to 46 µM
Inconclusive results are not listed. Active and inactive are the calls of the source. Calls follow the shape of the dose curve; as a rule, active = well fitted cell-killing curve with a large enough effect; inconclusive = small, poorly fitted or top-dose-only effect; inactive = flat fitted curve, though single readings scatter.
endpoint: outcome

Below are worked cases with known answers.
Oc1ccc(/C=C/c2cc(O)cc(O)c2)cc1	inactive
COc1ccc2nc(NC(=O)Nc3ccccc3)sc2c1	inactive
O=C(OCc1ccccc1)c1ccc(O)cc1	inactive
O=C(O)CCC(=O)c1ccc(-c2ccccc2)cc1	inactive

Here's the next entry for you.
QUERY: Look up outcome for this molecule: `Nc1ccc(N=Nc2ccccc2)c(N)n1`
RESULT: inactive

###

Experiment: Cellular Toxicity (caspase-3) SK-N-SH (AID 661);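 also: cells exposed to compound for 16 hours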;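 as to caspase-3 activation: 0% = DMSO basal and 100% = 10 µM staurosporine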
Settings: SK-N-SH caspase-3 activation, qHTS
Calls of active or inactive are those of the source. The call rests on the fitted dose curve; in most records, active means well fitted activation curve with a large enough effect; inconclusive means small, poorly fitted or top-dose-only effect; inactive means flat fitted curve, though single readings scatter.
// one of 1 (yes) = active, 0 (no) = inactive, no free text

Below, 5 molecules whose answers are already recorded.
Oc1cccc(O)c1O	0 (no)
O=c1n(CC2CO2)c(=O)n(CC2CO2)c(=O)n1CC1CO1 (stereo unspecified)	1 (yes)
C/C=C/C=C/C(=O)O	0 (no)
C[C@H](CCC(=O)O)[C@H]1CC[C@H]2[C@@H]3[C@H](O)C[C@@H]4C[C@H](O)CC[C@]4(C)[C@H]3C[C@H](O)[C@]12C	0 (no)
C[C@H]1O[C@@H](O[C@H]2[C@@H](O)C[C@H](O[C@H]3[C@@H](O)C[C@H](O[C@H]4CC[C@@]5(C)[C@H](CC[C@@H]6[C@@H]5C[C@@H](O)[C@]5(C)[C@@H](C7=CC(=O)OC7)CC[C@]65O)C4)O[C@@H]3C)O[C@@H]2C)C[C@H](O)[C@@H]1O	0 (no)

QUERY: Just curious, what result did `CCCCO` get here?
RESULT: 0 (no)

QUERY: Per the records of this test, what outcome belongs to `CC(C)(C)CC(C)(C)c1ccc(OCCO)cc1` ?
RESULT: 0 (no)

QUERY: Returns: the outcome recorded for `OCl` in this assay.
RESULT: 0 (no)

QUERY: Kindly provide the recorded test outcome for the following molecule: `COC(=O)c1ccccc1O`
RESULT: 0 (no)

QUERY: Call for entry `O.O.O.O.O.O.O.O=S(=O)([O-])[O-].[Co+2]` :
RESULT: 0 (no)

QUERY: Per the records of this test, what outcome belongs to `OC[C@H]1O[C@@H]2O[C@H]3[C@H](O)[C@@H](O)[C@@H](O[C@H]4[C@H](O)[C@@H](O)[C@@H](O[C@H]5[C@H](O)[C@@H](O)[C@@H](O[C@H]6[C@H](O)[C@@H](O)[C@@H](O[C@H]7[C@H](O)[C@@H](O)[C@@H](O[C@H]1[C@H](O)[C@H]2O)O[C@@H]7CO)O[C@@H]6CO)O[C@@H]5CO)O[C@@H]4CO)O[C@@H]3CO` ?
RESULT: 0 (no)

###

Assay: P-glycoprotein substrates identified in KB-8-5-11 adenocarcinoma cell line, qHTS therapeutic library screen (AID 1346987); also: nearly all actives have a fitted effect of over 65% in size
Conditions: KB-8-5-11 (P-gp overexpressing) viability, CellTiter-Glo, 72 h; series mostly up to 44.5 µM
Results filed as inconclusive are left out. Calls of active or inactive are those of the source. Calls come from the whole dose curve; as a rule, active = well fitted inhibition curve with a large enough effect; inconclusive = small, poorly fitted or top-dose-only effect; inactive = flat fitted curve, though single readings scatter.
Bench note: report the call from True = active, False = inactive

Reference set (8 entries):
CCOC(=O)c1cc(-c2ccccc2)nc2ccc(C)cc12	False
CCN(CC)C(=O)[C@]1(c2ccccc2)C[C@@H]1CN	False
Cc1cccc(C)c1Nc1ncccc1C(=O)O	False
[O]=[Bi][O]C(=O)[O][Bi]=[O]	False
CCCCC[C@H](O)/C=C/[C@H]1[C@H](O)CC(=O)[C@@H]1C/C=C\CCCC(=O)O	False
CCOc1cc(-c2nccc3cc(OC)c(OC)cc23)cc(OCC)c1OCC	True
O=C(CCCCCCCCCCCCC1CCCC1)Nc1ccc(S(=O)(=O)c2ccc(NC(=O)CCCCCCCCCCCCC3CCCC3)cc2)cc1	False
COc1cc(C)c(/C=C/C(C)=C/C=C/C(C)=C/C(=O)O)c(C)c1C	False

QUERY: Identify the outcome logged in this assay for the compound shown: `CC(C)=CCC/C(C)=C/CC/C(C)=C/CC/C=C(\C)CC/C=C(\C)CCC=C(C)C`
RESULT: False

QUERY: Any idea what this test logged for `COc1ccc(/C=N/NC(=O)c2ccncc2)c(C(=O)O)c1OC` ?
RESULT: False

QUERY: Which outcome was entered for the compound `C=Cc1c(C)c2cc3nc(cc4[nH]c(cc5nc(cc1[nH]2)C(C)=C5CCC(=O)OC)c(CCC(=O)O)c4C)[C@@]1(C)C3=CC=C(C(=O)OC)[C@H]1C(=O)OC` in this test?
RESULT: False
